Provide the recorded pIC50 for the entries that follow.
Test system: PC12 cells
Assay: PC12 cell viability, CellTitreGlo Assay, 72 hrs
Format: cell-based
Conditions: Rattus norvegicus, PC-12
Please report pIC50 as the negative decimal logarithm of the molar concentration, giving only the number.

Return reported pIC50; argument: Cn1nc(C(F)(F)F)cc1-c1ccc(OCc2ccc(OCCOCCNc3cccc4c3C(=O)N(C3CCC(=O)NC3=O)C4=O)cc2)c(-c2ccc(Cl)c(C(F)(F)F)c2)c1O (stereo not drawn)
5.42

Return reported pIC50; argument: `Cc1ncsc1-c1ccc(CNC(=O)[C@@H]2C[C@H](O)CN2C(=O)[C@H](NC(=O)COCCNC(=O)CCOCCCN(C(=O)c2ccc(Cl)c(C(F)(F)F)c2)c2ccc(-c3cc(C(F)(F)F)nn3C)c(O)c2)C(C)(C)C)cc1`
4.84

Return reported pIC50; argument: `Cn1nc(C(F)(F)F)cc1-c1ccc(-c2ccc(Cl)cc2)c(OCc2ccc(Cl)c(C(F)(F)F)c2)c1O`
4.78

====

Assay: Plasma pharmacokinetics after 1 mg/kg PO in female mice
Conditions: mouse
Classification field: enter met for AUC(0-t) values not below 5000 ng·h/mL, not met for values below it.

Check if AUC(0-t) >= 5000 ng·h/mL (inclusive). Item: `Cn1nc(C(F)(F)F)cc1-c1c(F)cc(OCc2ccc(Cl)cc2)c(-c2ccc(Cl)c(C(F)(F)F)c2)c1O`
not met

Check if AUC(0-t) >= 5000 ng·h/mL (inclusive). Item: `Cn1nc(C(F)(F)F)c(Cl)c1-c1ccc(COc2ccc(Cl)cc2)c(-c2ccc(Cl)c(C(F)(F)F)c2)c1O`
met

Check if AUC(0-t) >= 5000 ng·h/mL (inclusive). Item: `Cn1nc(C(F)(F)F)cc1-c1ccc(COc2ccc(Cl)cc2)c(-c2ccc(Cl)c(C(F)(F)F)c2)c1O`
met

Check if AUC(0-t) >= 5000 ng·h/mL (inclusive). Item: `Cn1nc(C(F)(F)F)cc1-c1cc(Cl)c(COc2ccc(Cl)cc2)c(-c2ccc(Cl)c(C(F)(F)F)c2)c1O`
not met

Check if AUC(0-t) >= 5000 ng·h/mL (inclusive). Item: `Cn1nc(C(F)(F)F)c(Cl)c1-c1cc(Cl)c(COc2ccc(Cl)cc2)c(-c2ccc(Cl)c(C(F)(F)F)c2)c1O`
not met

====

System: PC12 cells
Assay: PC12 cell viability, CellTitreGlo Assay, 72 hrs
Format: cell-based
Conditions: Rattus norvegicus, PC-12
Reported property: IC50 (µM)
Provide the reading as a plain figure in µM.

# query: IC50 | item CNc1c(Cl)cc(-c2cc(C(F)(F)F)nn2C)c(O)c1-c1ccc(Cl)c(C(F)(F)F)c1 [NUCC-0226529] | system: PC12 cells
19.4

# query: IC50 | item Cn1nc(C(F)(F)F)c(Cl)c1-c1cc(F)c(COc2ccc(Cl)cc2)c(-c2ccc(Cl)c(C(F)(F)F)c2)c1O [NUCC-0227063] | system: PC12 cells
5.02

# query: IC50 | item CN(C)c1c(Cl)cc(-c2cc(C(F)(F)F)nn2C)c(O)c1-c1ccc(Cl)c(C(F)(F)F)c1 [NUCC-0226530] | system: PC12 cells
9.4

# query: IC50 | item Cn1nc(C(F)(F)F)cc1-c1cc(Cl)c(Oc2ccc(Cl)cc2)c(-c2ccc(Cl)c(C(F)(F)F)c2)c1O [NUCC-0227245] | system: PC12 cells
3.81

# query: IC50 | item Cn1nc(C(F)(F)F)cc1-c1ccc(Oc2ccc(Cl)cc2)c(-c2ccc(Cl)c(C(F)(F)F)c2)c1O [NUCC-0227247] | system: PC12 cells
7.12

# query: IC50 | item Cn1nc(C(F)(F)F)cc1-c1c(F)cc(OCc2ccc(Cl)cc2)c(-c2ccc(Cl)c(C(F)(F)F)c2)c1O [NUCC-0226545] | system: PC12 cells
10.8

# query: IC50 | item Cn1nc(C(F)(F)F)cc1-c1cc2c(c(-c3ccc(Cl)c(C(F)(F)F)c3)c1O)OC(c1ccc(Cl)cc1)CC2 (centres unmarked) [NUCC-0227173] | system: PC12 cells
14.1

# query: IC50 | item Cn1nc(C(F)(F)F)cc1-c1ccc(N(CC23CC4CC(CC(C4)C2)C3)C(=O)c2ccc(Cl)c(C(F)(F)F)c2)cc1O [NUCC-0226225] | system: PC12 cells
14.5

# query: IC50 | item Cn1nc(N)cc1-c1ccc(OCc2ccc(Cl)cc2)c(-c2ccc(Cl)c(C(F)(F)F)c2)c1O [NUCC-0226915] | system: PC12 cells
10.5

# query: IC50 | item Cn1nc(C(F)(F)F)c(Cl)c1-c1cc(Cl)c(COc2ccc(Cl)cc2Cl)c(-c2ccc(Cl)c(C(F)(F)F)c2)c1O [NUCC-0227038] | system: PC12 cells
15.3

# query: IC50 | item Cn1nc(C#N)cc1-c1ccc(OCc2ccc(Cl)cc2)c(-c2ccc(Cl)c(C(F)(F)F)c2)c1O [NUCC-0226914] | system: PC12 cells
3.5

# query: IC50 | item Cn1cncc1-c1ccc(OCc2ccc(Cl)cc2)c(-c2ccc(Cl)c(C(F)(F)F)c2)c1O [NUCC-0226660] | system: PC12 cells
9.22

# query: IC50 | item Cn1nc(C(F)(F)F)cc1-c1ccnc(-c2ccc(Cl)c(C(F)(F)F)c2)c1O [NUCC-0226595] | system: PC12 cells
4.03

====

Test system: ATF4
Assay: ATF4 protein level in PC3 cells by western blot, 24 hr
Type: cell-based
Settings: Homo sapiens, PC-3, PC3, 24 h, Actin control, read-out: Relative ATF4 protein at 10 μM (fold change, PC3 24 h)
Provide the recorded fold induction at 10 µM for the entries that follow.
Just the number, please, no unit after it.

Return reported fold induction at 10 µM; argument: Cn1nc(C(F)(F)F)cc1-c1cc2c(c(-c3ccc(Cl)c(C(F)(F)F)c3)c1O)OC(c1ccc(Cl)cc1)CC2 (stereo not drawn) [NUCC-0227173]
9

Return reported fold induction at 10 µM; argument: Cn1nc(C(F)(F)F)c(Cl)c1-c1cc(Cl)c(COc2ccc(Cl)cc2)c(-c2ccc(Cl)c(C(F)(F)F)c2)c1O [NUCC-0227037]
15.1

Return reported fold induction at 10 µM; argument: Cn1nc(C(F)(F)F)cc1-c1ccc(OCc2ccc(OCCOCCOc3cccc4c3C(=O)N(C3CCC(=O)NC3=O)C4=O)cc2)c(-c2ccc(Cl)c(C(F)(F)F)c2)c1O (stereo not drawn) [NUCC-0226279]
2.1

Return reported fold induction at 10 µM; argument: Cn1nc(C(F)(F)F)cc1-c1ccc(COc2ccc(Cl)cc2)c(-c2ccc(Cl)c(C(F)(F)F)c2)c1O [NUCC-0202416]
9.3

Return reported fold induction at 10 µM; argument: Cn1nc(C(F)(F)F)cc1-c1ccc(OCCCCCOCCOCCOc2cccc3c2C(=O)N(C2CCC(=O)NC2=O)C3=O)c(-c2ccc(Cl)c(C(F)(F)F)c2)c1O (stereo not drawn) [NUCC-0226224]
8.1

Return reported fold induction at 10 µM; argument: CC(=O)Oc1c(-c2cc(C(F)(F)F)nn2C)ccc(OCc2ccc(OCCOCCOS(=O)(=O)c3ccc(C)cc3)cc2)c1-c1ccc(Cl)c(C(F)(F)F)c1 [NUCC-0226263]
0.7

====

Test system: ATF4
Assay: ATF4 protein level in PC3 cells by western blot, 24 hr
Type: cell-based
Conditions: Homo sapiens, PC-3, PC3, 24 h, Actin control, read-out: Relative ATF4 protein at 10 μM (fold change, PC3 24 h)
Provide the recorded fold induction at 10 µM for the entries that follow.

Return reported fold induction at 10 µM; argument: Cc1ncsc1-c1ccc(CNC(=O)[C@@H]2C[C@@H](O)CC2C(=O)[C@@H](NC(=O)COCCNC(=O)CCOCCCN(C(=O)c2ccc(Cl)c(C(F)(F)F)c2)c2ccc(-c3cc(C(F)(F)F)nn3C)c(O)c2)C(C)(C)C)cc1 (some centres unmarked)
23.1

Return reported fold induction at 10 µM; argument: CN1C(=O)CCC(N2C(=O)c3cccc(NCCOCCOCCNC(=O)CCOCCCN(C(=O)c4ccc(Cl)c(C(F)(F)F)c4)c4ccc(-c5cc(C(F)(F)F)nn5C)c(O)c4)c3C2=O)C1=O (centres unmarked)
1.1

Return reported fold induction at 10 µM; argument: `CC(=O)N[C@@H](C(=O)N1C[C@@H](O)C[C@@H]1C(=O)NCc1ccc(-c2scnc2C)cc1OCCOCCNC(=O)CCOCCCN(C(=O)c1ccc(Cl)c(C(F)(F)F)c1)c1ccc(-c2cc(C(F)(F)F)nn2C)c(O)c1)C(C)(C)C`
2.9

Return reported fold induction at 10 µM; argument: `Cn1nc(C(F)(F)F)cc1-c1cc(Cl)c(N)c(-c2ccc(Cl)c(C(F)(F)F)c2)c1O`
2

Return reported fold induction at 10 µM; argument: `COc1c(Cl)cc(-c2cc(C(F)(F)F)nn2C)c(O)c1-c1ccc(Cl)c(C(F)(F)F)c1`
7.7
